src = ChEMBL document CHEMBL1144837

tested on: K562; experiment: Cell cycle arrest in human K562 cells assessed as accumulation at G2/M phase at 10 uM after 24 hrs by flow cytometry; type: functional
observed_property: Activity (%)
Your answer should be a plain number; it is taken to be in %.

Entry COc1ccc(/C=C/C(=O)c2c(OC)cccc2OC)c(OC)c1OC , Activity reported as 19

Entry COc1cc(O)c(C(=O)/C=C/c2ccccc2OC)c(OC)c1 , Activity reported as 41

Entry COc1cccc(OC)c1C(=O)/C=C/c1ccc(C(F)(F)F)cc1 , Activity reported as 23

Entry COc1ccc(C(=O)/C=C/c2c(OC)cc(OC)cc2OC)c(O)c1 , Activity reported as 19

Entry COc1cc(O)c(C(=O)/C=C/c2ccc3c(c2)OCO3)c(OC)c1 , Activity reported as 13

Entry COc1cc(OC)c(/C=C/C(=O)c2ccc(Cl)c(Cl)c2)c(OC)c1 , Activity reported as 30
